Where do these numbers come from? They come from ChEMBL document CHEMBL4406913.

- Assay Summary: Oral bioavailability in cynomolgus monkey at 4 mg/kg measured for 24 hrs by LC-MS/MS analysis
- Type: ADME, organism-based, Macaca fascicularis
- Condition Context: in vivo
Test Readout: bioavailability (%)
One number for each entry, in %.

bioavailability measured on CCOc1c([C@H](C)n2nc(C)c3c(N)ncnc32)cc(Cl)c(F)c1[C@@H]1CNC(=O)C1 [PARSACLISIB] = 79

* * *

- Assay Summary: Permeability across apical to basolateral side in human Caco2 cells at 50 uM incubated for 120 mins by LC/MS analysis
- Assay type: ADME, cell-based
- Condition Context: Caco-2, read-out: permeability
I'd be grateful if you could share measured Papp A→B at 2 h, 50 µM for these entries.
Give bare numbers, in ×10⁻⁶ cm/s.

Example cases with answers are listed next.
- Compound: "CCOc1c([C@H](C)n2nc(C)c3c(N)ncnc32)cc(Cl)c(F)c1[C@@H]1CNC(=O)C1"
  Measured Value: 1
- Compound: "CCOc1c([C@H](C)n2nc(C)c3c(N)ncnc32)cc(Cl)c(C#N)c1C1CNC(=O)C1 (stereo partly specified)"
  Measured Value: 0.3
- Compound: "COc1c([C@H](C)n2nc(C)c3c(N)ncnc32)cc(Cl)c(C)c1C1CNC(=O)C1 (stereo partly specified)"
  Measured Value: 2.8
- Compound: "CCOc1c([C@H](C)n2nc(C)c3c(N)ncnc32)cc(Cl)c(C)c1C1CNC(=O)C1 (stereo partly specified)"
  Measured Value: 1.9
- Compound: "COc1c([C@H](C)Nc2ncnc3[nH]cnc23)cc(Cl)c(C)c1-c1cncc(S(C)(=O)=O)c1"
  Measured Value: 0.5

Attention now shifts to the item below.
Papp A→B at 2 h, 50 µM measured on COc1c([C@H](C)Nc2ncnc(N)c2C#N)cc(Cl)c(C)c1-c1cncc(S(C)(=O)=O)c1 = 7.9
